- experiment-notes: CCTE_Harrill_HTTr_Apoptosis_PRF_DMEM_6hr: (Pilot) CCTE's 6-hour Apoptosis Assessment for the High-Throughput Transcriptomics (HTTr) Platform, in MCF-7 cells cultured phenol red-free DMEM + 10% charcoal-stripped fetal bovine serum, Harrill Lab (AID 2283984)
Active and inactive are the calls of the source. Rule for the calls: active = hit-call score of the fitted dose curve at least 0.9, where 1 is the maximum; inactive = score below 0.9.
Could you please pick one outcome from this set? Yes for active, No for inactive

Nc1nc(Cl)nc2c1ncn2[C@H]1C[C@H](O)[C@@H](CO)O1 : No
CC(=O)O[C@]1(C(C)=O)CC[C@H]2[C@@H]3C=C(Cl)C4=CC(=O)[C@@H]5C[C@@H]5[C@]4(C)[C@H]3CC[C@@]21C : No
CC(C)OC(=O)C(C)(C)Oc1ccc(C(=O)c2ccc(Cl)cc2)cc1 : No
CCN(CC)CCOc1ccc(C(=C(Cl)c2ccccc2)c2ccccc2)cc1 : Yes
COC(=O)[C@H]1[C@H]2C[C@@H]3c4[nH]c5cc(OC)ccc5c4CCN3C[C@H]2C[C@@H](OC(=O)c2cc(OC)c(OC)c(OC)c2)[C@@H]1OC : No

We now examine a further compound.
Short answer needed: outcome of this test for Cc1c(C)c2c(c(C)c1O)CCC(C)(COc1ccc(CC3SC(=O)NC3=O)cc1)O2 (stereo unspecified) ? No

----------
- Read-out: Urokinase-type plasminogen activator receptor (uPAR), PLAUR (gene 5329)
- experiment-notes: BSK_CASM3C_uPAR: BioMAP Diversity Plus: CASM3C Assay for Urokinase-type plasminogen activator receptor (uPAR) Biomarker Activity (AID 2283054);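 note: cell-surface uPAR protein level quantified by ELISA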
- protocol-conditions: primary human coronary artery smooth muscle cells; actives raise or lower the signal
The source made the active and inactive calls. Rule for the calls: active = hit-call score of the fitted dose curve at least 0.9, where 1 is the maximum; inactive = score below 0.9.
Could you please pick one outcome from this set? Yes = active, No = inactive

Short answer needed: outcome of this test for CN(C)C(=O)NC1(c2ccccc2)CCN(CC[C@@]2(c3ccc(F)c(F)c3)CN(C(=O)c3ccccc3)CCO2)CC1 ? No

Short answer needed: outcome of this test for NC1CCCCC1 ? No

----------
- Read-out: Interleukin-8 (IL8), CXCL8 (gene 3576)
- experiment-notes: BSK_3C_IL8: BioMAP Diversity Plus: 3C Assay for Interleukin-8 (IL8) Biomarker Activity (AID 2283020)
- protocol-conditions: primary human endothelial cells (HUVEC); actives raise or lower the signal
Active and inactive are the calls of the source. The calls were made as follows: active = hit-call score of the fitted dose curve at least 0.9, where 1 is the maximum; inactive = score below 0.9.
Could you please pick one outcome from this set? t for active, f for inactive

CC(C)OC(=O)C(C)(C)Oc1ccc(C(=O)c2ccc(Cl)cc2)cc1 : t
CCCCCCCC(=O)OC : f

Short answer needed: outcome of this test for CCc1nc(N)nc(N)c1-c1ccc(Cl)cc1 ? f

Short answer needed: outcome of this test for CCCCOC(=O)CCCCC(=O)OCCCC ? f

Short answer needed: outcome of this test for CN(C)C(=O)NC1(c2ccccc2)CCN(CC[C@@]2(c3ccc(F)c(F)c3)CN(C(=O)c3ccccc3)CCO2)CC1 ? f

Short answer needed: outcome of this test for O=C1CCCCC1 ? f

Short answer needed: outcome of this test for O=NO ? f

----------
- experiment-notes: BSK_LPS_PGE2: BioMAP Diversity Plus: LPS Assay for Prostaglandin E2 (PGE2) Biomarker Activity (AID 2283082)
- protocol-conditions: primary human HUVEC with PBMC; actives raise or lower the signal
Activity calls are given as the source filed them. Rule for the calls: active = hit-call score of the fitted dose curve at least 0.9, where 1 is the maximum; inactive = score below 0.9.
Could you please pick one outcome from this set? true (1) = active, false (0) = inactive

Some solved cases for reference:
CCN(CC)CCOc1ccc(C(=C(Cl)c2ccccc2)c2ccccc2)cc1 : true (1)
O=C1CCCCC1 : false (0)
Nc1nc(=S)c2[nH]cnc2[nH]1 : true (1)

Short answer needed: outcome of this test for NC=O ? false (0)

Short answer needed: outcome of this test for C#CC(O)C(CC)CCCC (configuration not stated) ? false (0)

Short answer needed: outcome of this test for CCc1nc(N)nc(N)c1-c1ccc(Cl)cc1 ? false (0)

Short answer needed: outcome of this test for Oc1ccc(O)cc1 ? true (1)

Short answer needed: outcome of this test for COc1ccc(OC(F)(F)F)cc1CN[C@H]1CCCN[C@H]1c1ccccc1 ? false (0)

Short answer needed: outcome of this test for Cc1occc(=O)c1O ? false (0)

Short answer needed: outcome of this test for COC(=O)[C@H]1[C@H]2C[C@@H]3c4[nH]c5cc(OC)ccc5c4CCN3C[C@H]2C[C@@H](OC(=O)c2cc(OC)c(OC)c(OC)c2)[C@@H]1OC ? false (0)
